Could you please report measured Kd for the items listed next?
target: HLA-B*51:01; assay: IEDB peptide-MHC binding, purified MHC/competitive/fluorescence; filed as Kd, often an IC50 or EC50 that approximates it; bounds were set here for any values at or beyond the usual limits of such assays; details: source organism: Orthohantavirus andesense

Answer with reported Kd of RWASGVSEI
≥ 20 µM

Answer with reported Kd of STGKSIKFK
≥ 20 µM

====

target: HLA-A*03:01; assay: IEDB peptide-MHC binding, purified MHC/direct/fluorescence; filed as Kd, often an IC50 or EC50 that approximates it; bounds were set here for any values at or beyond the usual limits of such assays; settings: source organism: Yersinia pestis
MEASURED_PROPERTY: pKd
Note: pKd values are expressed as the negative base-10 logarithm of concentration in M.

Answer with reported pKd of GSYFSGFYK
7.86

====

molecular target: HLA-A*02:06; assay: IEDB peptide-MHC binding, purified MHC/competitive/radioactivity; filed as Kd, often an IC50 or EC50 that approximates it; bounds were set here for any values at or beyond the usual limits of such assays; conditions: source organism: Mammarenavirus whitewaterense
Could you please report measured pKd for the items listed next?
Note: pKd values are expressed as the negative base-10 logarithm of concentration in M.

Answer with reported pKd of VCFWSTLFYV
5.95

Answer with reported pKd of FLLRGPFEAS
7.15

====

molecular target: HLA-A*29:02; experiment: IEDB peptide-MHC binding, purified MHC/competitive/radioactivity; filed as Kd, often an IC50 or EC50 that approximates it; bounds were set here for any values at or beyond the usual limits of such assays; conditions: source organism: Triticum aestivum
MEASURED_PROPERTY: Kd (µM)
Give the number; µM is assumed, so skip it.

Answer with reported Kd of SSQVLQQSTY
2.99

====

target: HLA-B*40:01; assay: IEDB peptide-MHC binding, purified MHC/direct/fluorescence; filed as Kd, often an IC50 or EC50 that approximates it; bounds were set here for any values at or beyond the usual limits of such assays; conditions: source organism: Influenza A virus (A/duck/Mongolia/47/2001(H7N1))
MEASURED_PROPERTY: Kd

Look up and report Kd, with HLA-B*40:01 as system, for THFQRKRRV
≥ 20 µM

====

target: HLA-B*40:13; test: IEDB peptide-MHC binding, purified MHC/competitive/fluorescence; filed as Kd, often an IC50 or EC50 that approximates it; bounds were set here for any values at or beyond the usual limits of such assays; conditions: source organism: Yersinia pestis Nepal516
MEASURED_PROPERTY: Kd (µM)
Give the number; µM is assumed, so skip it.

Answer with reported Kd of MLYPLLWMF
3.5

====

molecular target: HLA-A*69:01; experiment: IEDB peptide-MHC binding, purified MHC/direct/fluorescence; filed as Kd, often an IC50 or EC50 that approximates it; bounds were set here for any values at or beyond the usual limits of such assays; settings: source organism: Mycobacterium tuberculosis
Could you please report measured Kd for the items listed next?
Give the number; µM is assumed, so skip it.

Answer with reported Kd of VLLDSITRL
4.35

Answer with reported Kd of FLHGGDFGV
0.691

====

target: HLA-A*03:01; experiment: IEDB peptide-MHC binding, purified MHC/direct/fluorescence; filed as Kd, often an IC50 or EC50 that approximates it; bounds were set here for any values at or beyond the usual limits of such assays; conditions: source organism: Zaire ebolavirus
pKd: −log10 of the molar value.
MEASURED_PROPERTY: pKd

Answer with reported pKd of LSDAIFDDL
≤ 4.70

Answer with reported pKd of FLSFASLFL
≤ 4.70

Answer with reported pKd of TTIGEWAFW
≤ 4.70

====

target: HLA-A*69:01; test: IEDB peptide-MHC binding, purified MHC/competitive/fluorescence; filed as Kd, often an IC50 or EC50 that approximates it; bounds were set here for any values at or beyond the usual limits of such assays; conditions: source organism: Human immunodeficiency virus 1
MEASURED_PROPERTY: Kd

Answer with reported Kd of DLADQLIHL
19.8 nM

Answer with reported Kd of ELADQLIHL
≤ 1 nM

Answer with reported Kd of NLGQHIYET
≥ 20000 nM

====

biological target: HLA-B*44:03; assay: IEDB peptide-MHC binding, purified MHC/competitive/radioactivity; filed as Kd, often an IC50 or EC50 that approximates it; bounds were set here for any values at or beyond the usual limits of such assays; conditions: source organism: Mammarenavirus lassaense
MEASURED_PROPERTY: pKd
Note: pKd values are expressed as the negative base-10 logarithm of concentration in M.

Answer with reported pKd of IEEIMNIVLI
6.35

====

target: HLA-A*02:01; assay: IEDB peptide-MHC binding, purified MHC/direct/fluorescence; filed as Kd, often an IC50 or EC50 that approximates it; bounds were set here for any values at or beyond the usual limits of such assays; conditions: source organism: Yersinia enterocolitica
MEASURED_PROPERTY: pKd
Note: pKd values are expressed as the negative base-10 logarithm of concentration in M.

Answer with reported pKd of RIYSHIAPY
5.70

====

biological target: HLA-A*26:01; experiment: IEDB peptide-MHC binding, purified MHC/direct/fluorescence; filed as Kd, often an IC50 or EC50 that approximates it; bounds were set here for any values at or beyond the usual limits of such assays; details: source organism: Escherichia coli 536
pKd: −log10 of the molar value.
MEASURED_PROPERTY: pKd

Answer with reported pKd of RYICPVQQI
≤ 4.70

====

molecular target: HLA-A*02:06; assay: IEDB peptide-MHC binding, purified MHC/direct/fluorescence; filed as Kd, often an IC50 or EC50 that approximates it; bounds were set here for any values at or beyond the usual limits of such assays; conditions: source organism: Brucella ovis ATCC 25840
MEASURED_PROPERTY: Kd (nM)
Give the number; nM is assumed, so skip it.

Answer with reported Kd of CTDPPLLSV
23

====

molecular target: HLA-B*15:42; test: IEDB peptide-MHC binding, purified MHC/competitive/fluorescence; filed as Kd, often an IC50 or EC50 that approximates it; bounds were set here for any values at or beyond the usual limits of such assays; settings: source organism: Vibrio vulnificus YJ016
MEASURED_PROPERTY: Kd

Answer with reported Kd of YTMELCGAM
≥ 5 µM

====

target: HLA-A*02:16; assay: IEDB peptide-MHC binding, purified MHC/competitive/fluorescence; filed as Kd, often an IC50 or EC50 that approximates it; bounds were set here for any values at or beyond the usual limits of such assays; conditions: source organism: Human herpesvirus 5 strain Towne
MEASURED_PROPERTY: pKd
Note: pKd values are expressed as the negative base-10 logarithm of concentration in M.

Look up and report pKd, with HLA-A*02:16 as system, for NLVPMVATV
9.27

====

molecular target: HLA-C*06:02; test: IEDB peptide-MHC binding, purified MHC/direct/fluorescence; filed as Kd, often an IC50 or EC50 that approximates it; bounds were set here for any values at or beyond the usual limits of such assays; settings: source organism: human gammaherpesvirus 4
MEASURED_PROPERTY: pKd
Note: pKd values are expressed as the negative base-10 logarithm of concentration in M.

Answer with reported pKd of YARYVLQKL
6.06

====

biological target: HLA-B*15:01; experiment: IEDB peptide-MHC binding, purified MHC/direct/fluorescence; filed as Kd, often an IC50 or EC50 that approximates it; bounds were set here for any values at or beyond the usual limits of such assays; details: source organism: Zaire ebolavirus
pKd: −log10 of the molar value.
MEASURED_PROPERTY: pKd

Answer with reported pKd of TTIGEWAFW
≤ 4.70

====

biological target: HLA-B*39:01; assay: IEDB peptide-MHC binding, purified MHC/competitive/fluorescence; filed as Kd, often an IC50 or EC50 that approximates it; bounds were set here for any values at or beyond the usual limits of such assays; settings: source organism: Yersinia mollaretii ATCC 43969
pKd: −log10 of the molar value.
MEASURED_PROPERTY: pKd

Answer with reported pKd of MMWIPGWFG
≤ 4.70

====

biological target: HLA-C*12:03; assay: IEDB peptide-MHC binding, purified MHC/direct/fluorescence; filed as Kd, often an IC50 or EC50 that approximates it; bounds were set here for any values at or beyond the usual limits of such assays; settings: source organism: Homo sapiens
Could you please report measured Kd for the items listed next?

Answer with reported Kd of KAFQDVLYV
≤ 1 nM

Answer with reported Kd of YTAVVPLVY
171 nM

====

target: HLA-A*02:11; assay: IEDB peptide-MHC binding, purified MHC/competitive/fluorescence; filed as Kd, often an IC50 or EC50 that approximates it; bounds were set here for any values at or beyond the usual limits of such assays; conditions: source organism: Brucella abortus bv. 2 str. 86/8/59
MEASURED_PROPERTY: pKd
Note: pKd values are expressed as the negative base-10 logarithm of concentration in M.

Answer with reported pKd of ILDDPEIYP
6.17

From: the Immune Epitope Database (IEDB)
